// provenance: patent US20220073643A1

Listed next: entries and their corresponding pEC50.
- target-under-test: T1, human Claudin18.2 (human)
- T1 construct: also called CLDN18.2
- experiment-description: cell ELISA, Claudin18.2-expressing HEK293T cells
In plain terms, pEC50 is the concentration in mol/L turned into minus its base-10 logarithm.

Sample records with pEC50:
INSERT INTO assay_data (binder, data_value) VALUES
  ('422E8F9 (antibody, V domains shown, mouse hybridoma mAb) VH: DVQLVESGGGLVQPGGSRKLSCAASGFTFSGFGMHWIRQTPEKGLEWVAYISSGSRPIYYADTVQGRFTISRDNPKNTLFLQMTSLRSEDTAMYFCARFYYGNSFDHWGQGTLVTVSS VL: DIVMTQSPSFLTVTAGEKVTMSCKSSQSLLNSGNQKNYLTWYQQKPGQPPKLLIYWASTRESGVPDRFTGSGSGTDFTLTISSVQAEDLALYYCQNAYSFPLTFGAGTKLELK', 8.73),
  ('246B5F2 (IgM) (antibody, V domains shown, mouse hybridoma mAb, IgM) VH: EVMLVESGGGLMKPGGSLKLSCAASEFTFSNYAMSWVRQTPEKRLEWVATISSGRSSTYYPDSVKGRFTISRDNAKNTLYLQMSSLRSEDTAMYYCAGLGRGNAMEYWGQGTSVTVSS VL: DIVMTQSPSSLTVTAGEKVTLSCKSSQSLLNSGNQKNYLTWYQQKPGQPPKLLIYWASTRESGVPDRFTGSGSGTDFILTINSVQAEDLAVYYCQNAYSYPFTFGSGTKLEIK', 8.18),
  ('426H6E11 (antibody, V domains shown, mouse hybridoma mAb) VH: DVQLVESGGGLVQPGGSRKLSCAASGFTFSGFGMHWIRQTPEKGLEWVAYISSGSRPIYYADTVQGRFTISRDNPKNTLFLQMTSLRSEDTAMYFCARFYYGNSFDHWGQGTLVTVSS VL: DIVMTQFPSFLTVTAGEKVTMSCKSSQTLLNSGNQKNYLTWYQQKPGQPPKLLIYWASTRESGVPDRFTGSGSGTDFTLTISSVQAEDLALYYCQNAYSFPLTFGAGTNLELK', 8.75),
  ('414A5F7 (antibody, V domains shown, mouse hybridoma mAb) VH: DVQLVESGGGLVQPGGSRKLSCAASGFTFSSFGMHWVRQAPEKGLEWVAYISSGSSPIYYADTVKGRFTISRDNPKNTLFLQMTSLRSEDTAMYFCARIYYGNSFAYWGQGTLVTVSA VL: DIVMTQSPSSLTVTAGEKVAMSCKSSQTLLNSGNQKNYLTWYQQKPGQPPKLLLYWASTRESGVPDRFTGSGSGTDFTLTISSVQAEDLAVYYCQNAYYYPLTFGSGTKLELK', 7.81),
  ('240F8G2 (antibody, V domains shown, mouse hybridoma mAb) VH: QAYLQQSGAELVRSGASVKMSCKASGYTFTNYNIHWVKQTPGQGLEWIGYIYPGNGGNYYNQKFKGKATLTADTSSSTAYMQISSLTSEDSAVYFCARDYYGNSFAYWGQGTLVTVSA VL: DIVVTQSPSSLTVTAGEKVTMNCKSSQSLLNSGNQKNYLTWYQQKPGQPPKLLIYWASTRESGVPDRFTGSGSGTDFTLTISSVQAEDLAIYYCQNDYYYPLTFGAGTKLELK', 9.06);

Please find the next binder below.
pEC50 lookup needed for 257B1G9 (antibody, V domains shown, mouse hybridoma mAb) VH: QAYLQQSGAELVRSGASVKMSCKASGYTFTSHNMHWVKQTPGQGLEWIGYIYPGNGGTNYNQKFKGKATLTADTSSSTAYMQISSLTSEDSAVYFCTRDYYGNSFAYWGQGTLVTVSA VL: DIVMTQSPSSLTERAGERVSMSCKSSQSLFNSGNQKNYLTWYQQKPGQPPKLLIYWASTRESGVPDRFTGSGSGTDFTLTISSVQAEDLAVYYCQNDYRYPFTFGAGTKLELK , thanks.
9.02
